target: Opioid receptors; mu & kappa (UniProt P41145+P35372); experiment: Ratio of affinity towards mu and kappa opioid receptors; assay type: protein assay
Sequence (P35372 whole entry, looked up): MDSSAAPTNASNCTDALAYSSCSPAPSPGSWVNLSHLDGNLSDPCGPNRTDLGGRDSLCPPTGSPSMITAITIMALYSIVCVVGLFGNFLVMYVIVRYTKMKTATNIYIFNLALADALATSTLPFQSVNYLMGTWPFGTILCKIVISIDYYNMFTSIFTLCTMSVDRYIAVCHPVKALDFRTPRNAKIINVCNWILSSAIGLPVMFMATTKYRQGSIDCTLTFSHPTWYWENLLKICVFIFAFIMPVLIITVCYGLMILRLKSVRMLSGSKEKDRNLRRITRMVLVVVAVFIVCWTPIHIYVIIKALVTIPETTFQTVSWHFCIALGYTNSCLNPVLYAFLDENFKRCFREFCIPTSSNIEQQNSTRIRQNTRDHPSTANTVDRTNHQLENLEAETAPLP
Sequence (P41145 whole entry, looked up): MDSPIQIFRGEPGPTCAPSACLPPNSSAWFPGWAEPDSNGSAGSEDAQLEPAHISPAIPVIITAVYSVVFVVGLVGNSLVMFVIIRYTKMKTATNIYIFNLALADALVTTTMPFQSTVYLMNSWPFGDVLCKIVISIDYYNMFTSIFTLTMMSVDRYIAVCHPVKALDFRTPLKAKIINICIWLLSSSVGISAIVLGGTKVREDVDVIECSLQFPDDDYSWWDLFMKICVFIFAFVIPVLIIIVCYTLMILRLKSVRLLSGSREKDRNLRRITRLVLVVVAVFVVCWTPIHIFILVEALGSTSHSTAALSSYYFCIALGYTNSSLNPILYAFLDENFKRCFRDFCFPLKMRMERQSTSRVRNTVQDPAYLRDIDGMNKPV
Measured Selectivity ratio by item
Could you respond with only the numeric value?

> print(dat)
                                   compound                             target.system  measured.quantity  meas.value
1  CC(C)CC(NC(=O)[C@]1(c2ccccc2)CC1CN1CC[C@@]2(C)c3cc(O)ccc3CC1C2C)C(=O)NCCCCCN=C(N)N (some centres not stated)  Opioid receptors; mu & kappa (UniProt P41145+P35372)  Selectivity ratio        12.9

Form: Entry = CC(C)CC(NC(=O)CNC(=O)[C@]1(c2ccccc2)CC1CN1CC[C@@]2(C)c3cc(O)ccc3CC1C2C)C(=O)NCCCCCCN (some centres not stated) | System = Opioid receptors; mu & kappa (UniProt P41145+P35372) | Selectivity ratio = ____
101

Consider next the compound CCCC(=N)NCCCCCNC(=O)C(CC(C)C)NC(=O)[C@]1(c2ccccc2)CC1CN1CC[C@@]2(C)c3cc(O)ccc3CC1C2C (some centres not stated) in the same way.
12.8

Consider next the compound CC(C)CC(NC(=O)[C@]1(c2ccccc2)CC1CN1CC[C@@]2(C)c3cc(O)ccc3CC1C2C)C(=O)NCCCN (some centres not stated) in the same way.
11.5
